target: human parathyroid hormone receptor 1 (human, UniProt Q03431); test: cell-based or functional assay
Starred links: 1 amine or outer side, 2 acyl side, 3 side chain; linkers in the order of their positions; H or OH if unused. Non-standard residues stand in square brackets, D forms with d. No end group written: not given here. hSer(OMe) = COCC[C@H](N[*:1])C(=O)[*:2]; 1Nal = N[C@@H](Cc1cccc2ccccc12)C(=O)O; β3hI = CC[C@H](C)[C@H](N)CC(=O)O; β3hR = N=C(N)NCCC[C@H](N)CC(=O)O; Nle = CCCC[C@H](N)C(=O)O; Aib = CC(C)(N)C(=O)O; βAla = NCCC(=O)O
readout-type: hPTHR-1 EC50 (nM), CRE-luciferase reporter gene assay
Express it in nM; write the number only.

Known results for binders:
[
  {
    "binder": "SVSEIQL[hSer(OMe)]HNLGKHLN[βAla][hSer(OMe)]ERVE[1Nal]LRKLLQDVHNF-NH2 [[hSer(OMe)^8,18, β-Ala^17, 1-Nal^23, Leu^27] hPTH(1-34)-NH2]",
    "measurement-unit": "nM",
    "result-number": 0.88
  },
  {
    "binder": "SVSEIQL[Nle]HNLGKHLN[βAla][hSer(OMe)]ERVE[1Nal]LRKLLQDVHNF-NH2 [[Nle^8, β-Ala^17, hSer(OMe)^18, 1-Nal^23, Leu^27] hPTH (1-34)-NH2]",
    "measurement-unit": "nM",
    "result-number": 0.13
  },
  {
    "binder": "SVSEIQL[Nle]HNLGKHLNS[β3hI]ERVE[1Nal]LRKLLQDVHNF-OH [[Nle^8, β-hIle^18, 1-Nal^23, Leu^27] hPTH (1-34)-OH]",
    "measurement-unit": "nM",
    "result-number": 0.14
  },
  {
    "binder": "SVSEIQL[Nle]HNLGKHLNS[β3hI]ERVE[1Nal]LRKLLQDVHNF-NH2 [[Nle^8, β-hIle^18, 1-Nal^23, Leu^27] hPTH (1-34)-NH2]",
    "measurement-unit": "nM",
    "result-number": 0.14
  },
  {
    "binder": "SVSEIQL[Nle]HNLGKHLNS[β3hI]ERVE[1Nal]LRKLLQDV-NH2 [[Nle^8, β-hIle^18, 1-Nal^23, Leu^27] hPTH-(1-31)-NH2]",
    "measurement-unit": "nM",
    "result-number": 0.09
  }
]

INPUT: // hPTHR-1 EC50 (nM), CRE-luciferase reporter gene assay lookup, key: SVSEIQL[Nle]HSLGKHLNS[β3hI]ERVE[1Nal]LRKLLQDVHNF-NH2 [[Nle^8, Ser^10, β-hIle^18, 1-Nal^23, Leu^27] hPTH (1-34)-NH2]
OUTPUT: 0.18

INPUT: // hPTHR-1 EC50 (nM), CRE-luciferase reporter gene assay lookup, key: SVSEIQLXHNLGXHLNSXERVEXLRKLLQDVHNF (Nle^8, Aib^13, β-hIle^18, 1-Nal^23, C-terminal NH2 (amide)) [[Nle^8, Aib^13, β-hIle^18, 1-Nal^23, Leu^27] hPTH (1-34)-NH2]
OUTPUT: 0.14

INPUT: // hPTHR-1 EC50 (nM), CRE-luciferase reporter gene assay lookup, key: [Aib]VSEIQL[Nle]HNLGKHLNS[β3hR]ERVE[1Nal]LRKLLQDVHNF-NH2 [[Aib^1, Nle^8, β-hArg^18, 1-Nal^23, Leu^27] hPTH (1-34)-NH2]
OUTPUT: 0.05

INPUT: // hPTHR-1 EC50 (nM), CRE-luciferase reporter gene assay lookup, key: SVSEIQL[Nle]HNLGKHLKS[β3hI]ERVE[1Nal]LRKLLQRVHEF-NH2 [[Nle^8, Lys^16, β-hIle^18, 1-Nal^23, Leu^27, Arg^30, Glu^33] hPTH (1-34)-NH2]
OUTPUT: 0.09

INPUT: // hPTHR-1 EC50 (nM), CRE-luciferase reporter gene assay lookup, key: `[Aib]VSEIQL[Nle]HSLGKHLK[βAla][Nle]ERVE[1Nal]LRKLLQRVHEE-NH2`
OUTPUT: 0.03

INPUT: // hPTHR-1 EC50 (nM), CRE-luciferase reporter gene assay lookup, key: [Aib]VSEIQL[Nle]HSLGKHLKS[β3hI]ERVE[1Nal]LRKLLQRVHEF-NH2 [[Aib^1, Nle^8, Ser^10, Lys^16, β-hIle^18, 1-Nal^23, Leu^27, Arg^30, Glu^33] hPTH (1-34)-NH2]
OUTPUT: 0.09
